# maps each entry to its inhibition at 72 h, 25 µM
protocol details: Toxicity against human KB/VCR cells assessed as inhibition of cell growth at 25 uM incubated for 72 hrs by sulforhodamine B assay
Format: cell-based
run conditions: read-out: GI
Write down the numeric answer in % and omit the unit.

Completed entries (count: 3):
{"compound": "CCCCC[C@H]1CCCCCCCCCC(=O)O[C@H]2[C@H](O[C@H]3[C@H](O1)O[C@H](C)[C@H](O)[C@@H]3O)O[C@@H](C)[C@H](O[C@@H]1O[C@@H](C)[C@H](O[C@@H]3O[C@@H](C)[C@H](OC(=O)[C@@H](C)CC)[C@@H](O)[C@H]3O)[C@@H](O[C@@H]3O[C@H](CO)[C@@H](O)[C@H](O)[C@H]3O)[C@H]1OC(=O)[C@@H](C)CC)[C@H]2O [MURUCOIDIN IV]", "measurement label": "inhibition at 72 h, 25 µM", "result unit": "%", "observed value": 97.5}
{"compound": "CCCCC[C@H]1CCCCCCCCCC(=O)O[C@H]2[C@H](O[C@H]3[C@H](O1)O[C@H](C)[C@H](OC(C)=O)[C@@H]3O)O[C@@H](C)[C@H](O[C@@H]1O[C@@H](C)[C@H](O[C@@H]3O[C@@H](C)[C@H](OC(=O)[C@@H](C)CC)[C@@H](O)[C@H]3O)[C@@H](O[C@@H]3O[C@H](CO)[C@@H](O)[C@H](O)[C@H]3O)[C@H]1OC(=O)[C@@H](C)CC)[C@H]2O", "measurement label": "inhibition at 72 h, 25 µM", "result unit": "%", "observed value": 97.8}
{"compound": "CCCCCCCCCC(=O)O[C@H]1[C@H](O[C@@H]2[C@@H](O)[C@H]3OC(=O)CCCCCCCCC[C@H](CCCCC)O[C@@H]4O[C@H](C)[C@H](O)[C@H](O)[C@H]4O[C@@H]3O[C@H]2C)O[C@@H](C)[C@H](O[C@@H]2O[C@@H](C)[C@H](OC(=O)[C@@H](C)CC)[C@@H](O)[C@H]2O)[C@H]1O[C@@H]1O[C@H](CO)[C@@H](O)[C@H](O)[C@H]1O", "measurement label": "inhibition at 72 h, 25 µM", "result unit": "%", "observed value": 96.7}

// lookup inhibition at 72 h, 25 µM for CCCCC[C@H]1CCCCCCCCCC(=O)O[C@H]2[C@@H](O)[C@H](O[C@H]3[C@H](O1)O[C@H](C)[C@H](O)[C@@H]3O)O[C@@H](C)[C@@H]2O[C@@H]1O[C@@H](C)[C@H](O[C@@H]2O[C@@H](C)[C@H](OC(=O)[C@@H](C)CC)[C@@H](O)[C@H]2O)[C@@H](O[C@@H]2O[C@H](CO)[C@@H](O)[C@H](O)[C@H]2O)[C@H]1OC(=O)[C@@H](C)CC [MURUCOIDIN V]
7.72

// lookup inhibition at 72 h, 25 µM for CCCCC[C@H]1CCCCCCCCCC(=O)O[C@H]2[C@H](O[C@H]3[C@H](O1)O[C@H](C)[C@H](O)[C@@H]3OC(C)=O)O[C@@H](C)[C@H](O[C@@H]1O[C@@H](C)[C@H](O[C@@H]3O[C@@H](C)[C@H](OC(=O)[C@@H](C)CC)[C@@H](O)[C@H]3O)[C@@H](O[C@@H]3O[C@H](CO)[C@@H](O)[C@H](O)[C@H]3O)[C@H]1OC(=O)[C@@H](C)CC)[C@H]2O
0.91
